Please go through the items and note down their log10 of IC50.
# Target or system: SARS2 protease (Severe acute respiratory syndrome coronavirus 2, UniProt P0DTD1)
# Construct: SARS2 protease was added to a final concentration of 30 nM
# Experiment notes: SARS-CoV-2 protease inhibition assay (SARS2 FRET protease assay)
# Type: biochemical
# Protocol conditions: IC50 (μM), SARS2 protease 30 nM, peptide substrate 1.3 μM, 120 minutes at 37° C., compounds 20 μM to 0.075 nM
Hello, just confirming the data are log10 of IC50 with units of µM.

(Q) Requested field: log10 of IC50. Item: CCCC[C@H](NC(=O)OC(c1ccccc1)C(F)(F)c1cccc(Cl)c1)C(=O)N[C@@H](Cc1ccc[nH]c1=O)C(=O)C(=O)NC1CC1 (stereo partly drawn)
(A) 0.11

(Q) Requested field: log10 of IC50. Item: CC(C)C[C@H](NC(=O)OC(c1ccc(F)cc1)C(F)(F)c1cccc(Cl)c1)C(=O)N[C@H](C=O)C[C@@H]1CCNC1=O (stereo partly drawn)
(A) -4.00

(Q) Requested field: log10 of IC50. Item: CC(C)C[C@H](NC(=O)OC(c1cccc(Cl)c1)C1(c2cccc(Cl)c2)CCN(C(=O)OC(C)(C)C)CC1)C(=O)N[C@H](C=O)C[C@@H]1CCNC1=O (stereo partly drawn)
(A) -0.43

(Q) Requested field: log10 of IC50. Item: CC(C)C[C@H](NC(=O)O[C@@H](C(C)C)C(F)(F)c1cccc(-c2ccccc2)c1)C(=O)N[C@H](C=O)C[C@@H]1CCNC1=O
(A) -3.00

(Q) Requested field: log10 of IC50. Item: CC(C)C[C@H](NC(=O)OC(C(C)C)C(F)(F)c1cccc(C2CC2)c1)C(=O)N[C@H](C=O)C[C@@H]1CCNC1=O (stereo partly drawn)
(A) -2.22

(Q) Requested field: log10 of IC50. Item: CCCC[C@H](NC(=O)O[C@H](c1cccc(F)c1)C(F)(F)c1cccc(F)c1)C(=O)N[C@H](C=O)C[C@@H]1CCNC1=O
(A) -3.00

----------
# Target or system: SARS2 protease (Severe acute respiratory syndrome coronavirus 2)
# Construct: SARS2 protease was added to a final concentration of 30 nM
# Experiment notes: SARS-CoV-2 protease inhibition assay (SARS2 FRET protease assay)
# Assay type: biochemical
# Protocol conditions: IC50 (μM), SARS2 protease 30 nM, peptide substrate 1.3 μM, 120 minutes at 37° C., compounds 20 μM to 0.075 nM
Assay endpoint: log10 IC50 (log10 of the value in µM)
Hello, just confirming the data are log10 of IC50 with units of µM.

(Q) Requested field: log10 IC50. Item: CC(C)C[C@H](NC(=O)OC(c1ccccc1)C(C)(C)c1cccc(C(F)(F)F)c1)C(=O)N[C@@H](C[C@@H]1CCNC1=O)C(=O)C(=O)NC1CC1 (some centres unmarked)
(A) -1.57

(Q) Requested field: log10 IC50. Item: CCCC[C@H](NC(=O)O[C@H](c1ccccc1)C(F)(F)c1cccc(F)c1)C(=O)N[C@H](C=O)C[C@@H]1CCNC1=O
(A) -1.64

(Q) Requested field: log10 IC50. Item: CC(C)C[C@H](NC(=O)O[C@@H](c1ccccc1)C(F)(F)c1cccc(F)c1)C(=O)N[C@H](C=O)C[C@@H]1CCNC1=O
(A) -2.15

(Q) Requested field: log10 IC50. Item: O=C(N[C@@H](CC1CCCCC1)C(=O)N[C@@H](C[C@@H]1CCNC1=O)C(=O)c1nc2ccccc2o1)OC(c1ccccc1)C(F)(F)c1cccc(Cl)c1 (some centres unmarked)
(A) -0.60

(Q) Requested field: log10 IC50. Item: CC(C)C[C@H](NC(=O)OC(c1cccc(Cl)c1)C1(c2cccc(Cl)c2)CCNCC1)C(=O)N[C@@H](C[C@@H]1CCNC1=O)C(=O)C(=O)NC1CC1 (some centres unmarked)
(A) -0.29

(Q) Requested field: log10 IC50. Item: CCCC[C@H](NC(=O)O[C@@H](c1ccccc1)C(C)(C)c1cccc(F)c1)C(=O)N[C@@H](C[C@@H]1CCNC1=O)C(=O)C(=O)NCC
(A) 0.00

(Q) Requested field: log10 IC50. Item: CCC(CC)(c1cccc(Cl)c1)C(OC(=O)N[C@@H](CC(C)C)C(=O)N[C@@H](C[C@@H]1CCNC1=O)C(=O)C(=O)NC1CC1)c1ccc(Cl)cc1 (some centres unmarked)
(A) -0.13

(Q) Requested field: log10 IC50. Item: CCCC[C@H](NC(=O)OC(c1ccccc1)C(F)(F)c1cccc(Cl)c1)C(=O)N[C@@H](C[C@@H]1CCNC1=O)C(=O)C(=O)O (some centres unmarked)
(A) -1.44

(Q) Requested field: log10 IC50. Item: CC(C)C[C@H](NC(=O)O[C@@H](c1ccccc1)C(F)(F)c1cccc(C(C)C)c1)C(=O)N[C@@H](C[C@@H]1CCNC1=O)C(=O)C(=O)NC1CC1
(A) -0.87

(Q) Requested field: log10 IC50. Item: NC(=O)C(=O)[C@H](C[C@@H]1CCNC1=O)NC(=O)[C@H](CC1CCCCC1)NC(=O)OC(c1ccccc1)C(F)(F)c1cccc(Cl)c1 (some centres unmarked)
(A) -3.00

(Q) Requested field: log10 IC50. Item: CC(C)C[C@H](NC(=O)O[C@@H](c1ccccc1)C(F)(F)c1cccc(C(C)C)c1)C(=O)N[C@H](C=O)C[C@@H]1CCNC1=O
(A) -3.00

(Q) Requested field: log10 IC50. Item: CCCC[C@H](NC(=O)OC(c1ccc(F)cc1)C1(c2cccc(F)c2)CC1)C(=O)N[C@@H](C[C@@H]1CCNC1=O)C(=O)C(=O)NC1CC1 (some centres unmarked)
(A) -0.65

(Q) Requested field: log10 IC50. Item: O=C[C@H](C[C@@H]1CCNC1=O)NC(=O)[C@H](CC1CC1)NC(=O)OC(c1ccccc1)C(F)(F)c1cccc(Cl)c1 (some centres unmarked)
(A) -3.05

(Q) Requested field: log10 IC50. Item: O=C(N[C@@H](CCCF)C(=O)N[C@@H](C[C@@H]1CCNC1=O)C(=O)C(=O)NC1CC1)OC(c1ccccc1)C(F)(F)c1cccc(Cl)c1 (some centres unmarked)
(A) -1.02

(Q) Requested field: log10 IC50. Item: CCCC[C@H](NC(=O)OC(c1ccccc1)C(F)(F)c1cccc(Cl)c1)C(=O)NC(CN1CCNC1=O)C(=O)C(=O)NC1CC1 (some centres unmarked)
(A) 0.64

(Q) Requested field: log10 IC50. Item: O=C(N[C@@H](CCC(F)F)C(=O)N[C@@H](C[C@@H]1CCNC1=O)C(=O)C(=O)NC1CC1)OC(c1ccccc1)C(F)(F)c1cccc(Cl)c1 (some centres unmarked)
(A) -2.22

(Q) Requested field: log10 IC50. Item: CC(C)(c1cccc(F)c1)C(OC(=O)N[C@@H](CC1CCCCC1)C(=O)N[C@@H](C[C@@H]1CCNC1=O)C(=O)C(=O)NC1CC1)c1ccccc1 (some centres unmarked)
(A) -0.21

(Q) Requested field: log10 IC50. Item: CC(C)C[C@H](NC(=O)OC(c1ccc(Cl)cc1)C1(c2cccc(Cl)c2)CCCCC1)C(=O)N[C@H](C=O)C[C@@H]1CCNC1=O (some centres unmarked)
(A) -0.42

(Q) Requested field: log10 IC50. Item: O=C[C@H](C[C@@H]1CCCNC1=O)NC(=O)[C@H](CC1CCCCC1)NC(=O)OC(c1ccccc1)C(F)(F)c1cccc(Cl)c1 (some centres unmarked)
(A) -4.00

(Q) Requested field: log10 IC50. Item: CCCC[C@H](NC(=O)OC(c1ccccc1)C(F)(F)c1cccc(Cl)c1)C(=O)N[C@@H](C[C@@H]1CCNC1=O)C(=O)C(=O)NCCNCC (some centres unmarked)
(A) -0.31

(Q) Requested field: log10 IC50. Item: CCCC[C@H](NC(=O)OC(c1ccccc1)C(F)(F)c1cccc(F)c1)C(=O)N[C@@H](C[C@@H]1CCNC1=O)C(=O)C(=O)NC1CC1 (some centres unmarked)
(A) -1.05

(Q) Requested field: log10 IC50. Item: O=C(N[C@@H](CC1CCCCC1)C(=O)N[C@@H](C[C@@H]1CCNC1=O)C(O)S(=O)(=O)O)O[C@@H](c1ccccc1)C(F)(F)c1cccc(F)c1 (some centres unmarked)
(A) -2.70

(Q) Requested field: log10 IC50. Item: O=C(N[C@@H](CC1CC1)C(=O)N[C@@H](C[C@@H]1CCNC1=O)C(=O)C(=O)NC1CC1)O[C@@H](c1ccccc1)C(F)(F)c1cccc(Cl)c1
(A) -2.70

----------
Please go through the items and note down their IC50.
# Target or system: SARS2 protease (Severe acute respiratory syndrome coronavirus 2, UniProt P0DTD1)
# Construct: SARS2 protease was added to a final concentration of 30 nM
# Experiment notes: SARS-CoV-2 protease inhibition assay (SARS2 FRET protease assay)
# Format: biochemical
# Protocol conditions: IC50 (μM), SARS2 protease 30 nM, peptide substrate 1.3 μM, 120 minutes at 37° C., compounds 20 μM to 0.075 nM
Write the number in µM without appending the unit.

(Q) Requested field: IC50. Item: CCCC[C@H](NC(=O)OC(c1ccccc1)C(C)(C)c1cccc(Cl)c1)C(=O)N[C@@H](C[C@@H]1CCNC1=O)C(=O)C(=O)NC1CC1 (stereo partly drawn) [Compound A189]
(A) 1.37

(Q) Requested field: IC50. Item: CCCCCOC(=O)N[C@@H](CC(C)C)C(=O)N[C@@H](C[C@@H]1CCNC1=O)C(=O)C(=O)NC1CCN(C)CC1 [Compound A8]
(A) 15

(Q) Requested field: IC50. Item: CC(C)C[C@H](NC(=O)OC(c1ccccc1)C(F)(F)c1cccc(C2CC2)c1)C(=O)N[C@@H](C[C@@H]1CCNC1=O)C(=O)C(=O)NC1CC1 (stereo partly drawn) [Compound A170]
(A) 0.0002

(Q) Requested field: IC50. Item: CC(C)C[C@H](NC(=O)OC(c1cccc(Cl)c1)C1(c2cccc(Cl)c2)CCC1)C(=O)N[C@@H](C[C@@H]1CCNC1=O)C(=O)C(=O)NC1CC1 (stereo partly drawn) [Compound A16]
(A) 0.38

(Q) Requested field: IC50. Item: CCNC(=O)C(=O)[C@H](C[C@@H]1CCNC1=O)NC(=O)[C@H](Cc1cccc(Cl)c1)NC(=O)OC(c1ccccc1)C(F)(F)c1cccc(Cl)c1 (stereo partly drawn) [Compound A287]
(A) 1.06

(Q) Requested field: IC50. Item: CCC(CC)(c1cccc(Cl)c1)C(OC(=O)N[C@@H](CC(C)C)C(=O)N[C@@H](C[C@@H]1CCNC1=O)C(=O)C(=O)NC1CC1)c1ccccc1 (stereo partly drawn) [Compound A6]
(A) 0.24

(Q) Requested field: IC50. Item: CC(C)C[C@H](NC(=O)O[C@H](c1cccc(Cl)c1)C(C)(C)c1cccc(Cl)c1)C(=O)N[C@H](C=O)C[C@@H]1CCNC1=O [Compound A140]
(A) 0.045

(Q) Requested field: IC50. Item: CC(C)C[C@H](NC(=O)OC(c1cccc(Cl)c1)C1(c2cccc(Cl)c2)CCC1)C(=O)N[C@H](C=O)C[C@@H]1CCNC1=O (stereo partly drawn) [Compound A7]
(A) 0.12

(Q) Requested field: IC50. Item: CCCC(=O)OC([C@H](C[C@@H]1CCNC1=O)NC(=O)[C@H](CC1CCCCC1)NC(=O)O[C@@H](c1ccccc1)C(F)(F)c1cccc(Cl)c1)S(=O)(=O)O (stereo partly drawn) [Compound A242]
(A) 1.2
